Parameter: TGI. Scope: all listed entries.
Tested on: SK-MEL-28 melanoma
Test: NCI tumour cell line growth inhibition, 48 h

{"MOLECULE": "NC(=O)N=C(N(Cc1ccccc1)Cc1ccccc1)N(Cc1ccccc1)Cc1ccccc1", "TGI": "> 100 µM"}
{"MOLECULE": "COc1cc(OC)c2c(c1)C(=O)C(CC(C)O)=CC2=O (centres undefined)", "TGI": "31.5 µM"}
{"MOLECULE": "COC(=O)C(CC12CC3CC(CC(C3)C1)C2)NC(=O)C(N)CC(=O)O (centres undefined)", "TGI": "> 100 µM"}
{"MOLECULE": "c1ccc([P+](Cc2ccc(C[P+](c3ccccc3)(c3ccccc3)c3ccccc3)cc2)(c2ccccc2)c2ccccc2)cc1", "TGI": "> 100 µM"}
{"MOLECULE": "O=C(/C=C/c1ccccc1)c1cc(Br)ccc1O", "TGI": "31.5 µM"}
{"MOLECULE": "CC12CCC(CC1=O)C2(C)CCC(N)=O (centres undefined)", "TGI": "> 100 µM"}
{"MOLECULE": "CC(=O)Nc1cc([As](=O)(O)O)ccc1O", "TGI": "> 100 µM"}
{"MOLECULE": "C=CCOc1ccc(/C(N=Nc2ccc(Cl)cc2)=N/NC(=O)c2ccccc2)cc1OC", "TGI": "> 100 µM"}
{"MOLECULE": "O=C(NCCO)Nc1ccc(-c2nc(N3CCOCC3)c3cccn3n2)cc1", "TGI": "4.59 µM"}
{"MOLECULE": "C=CC/C=C/Cc1csc(C(C)(C)C(O)C/C=C/C(=C)CCNC(=O)OC)n1 (centres undefined)", "TGI": "> 100 µM"}
{"MOLECULE": "COc1cc(/C=C/c2cc(O)c3cc(C(C)=O)c(=O)oc3c2)cc2c1O[C@]1(C)CC[C@@H](O)C(C)(C)[C@H]1C2", "TGI": "> 21.4 µM"}
{"MOLECULE": "CC1(C)C(=NNC(=O)C[N+](C)(C)C)C(C)(C)C1=NNC(=O)C[N+](C)(C)C", "TGI": "> 100 µM"}
{"MOLECULE": "CC(C)c1cc(-c2n[nH]c(=O)n2-c2ccc3c(ccn3C)c2)c(O)cc1O", "TGI": "17.2 µM"}
{"MOLECULE": "Cn1cc(-c2ccc3occ(-c4cccc(-c5ccncc5)c4)c3n2)cn1", "TGI": "> 100 µM"}

###

System: SNB-19 CNS
Experiment: NCI tumour cell line growth inhibition, 48 h

{"COMPOUND": "CCCCCCCCCCCCCCCCN1CC2CCCCC2C1 (centres undefined)", "TGI": "27.7 µM"}
{"COMPOUND": "CCN(CC)CCCNc1nc(=O)[nH]c(C)c1C(=O)Nc1cccc2cc3ccccc3cc12", "TGI": "> 100 µM"}
{"COMPOUND": "Cc1nc(N)nc(N)c1-c1ccc(Cl)c(Cl)c1", "TGI": "> 100 µM"}
{"COMPOUND": "CC#C[C@]1(O)CC[C@H]2[C@@H]3CCC4=CC(=O)CCC4=C3[C@@H](c3ccc4c(c3)OCO4)C[C@@]21C", "TGI": "> 1000 µM"}
{"COMPOUND": "CC(=O)NC(CS/N=N/c1nc[nH]c1C(N)=O)C(=O)O (centres undefined)", "TGI": "> 100 µM"}
{"COMPOUND": "O=C(N/C(=C\\c1ccc2c(c1)OCO2)c1nc2ccccc2[nH]1)c1ccccc1", "TGI": "> 100 µM"}
{"COMPOUND": "O=C1/C(=C\\c2c[nH]c3ccccc23)c2ccccc2N1c1c(Cl)cccc1Cl", "TGI": "13.5 µM"}
{"COMPOUND": "COC(=O)[C@H](C[C@H](Cc1ccccc1)NC(=O)c1csc([C@@H](C[C@H](C(C)C)N(C)C(=O)[C@@H](NC(=O)[C@H]2CCCCN2C)C(C)C)OC(C)=O)n1)NC(=O)OCc1ccccc1", "TGI": "> 9 µM"}
{"COMPOUND": "COc1ccc(C2=Nc3ccccc3NC(=O)C2)cc1", "TGI": "> 100 µM"}
{"COMPOUND": "CC1=C(Oc2ccccc2)C(CCC(=O)O)c2c(O)cc(Cl)c(O)c21 (centres undefined)", "TGI": "> 100 µM"}
{"COMPOUND": "CC(=O)OCC1OC(OC2C(CSC3OC(COC(C)=O)C(OC(C)=O)C(OC(C)=O)C3OC(C)=O)OC(OC(C)=O)C(OC(C)=O)C2OC(C)=O)C(OC(C)=O)C(OC(C)=O)C1OC(C)=O (centres undefined)", "TGI": "> 100 µM"}
{"COMPOUND": "O=c1cc(NNc2ccccc2)[nH]c(=S)[nH]1", "TGI": "> 100 µM"}
{"COMPOUND": "C[C@@H]1C[C@H]2CC[C@H](O2)[C@H](C)C(=O)O[C@@H](C)C[C@@H]2CC[C@@H](O2)[C@@H](C)C(=O)O[C@H](C)C[C@H]2CC[C@H](O2)[C@H](C)C(=O)O[C@@H](C)C[C@@H]2CC[C@@H](O2)[C@@H](C)C(=O)O1", "TGI": "> 100 µM"}
{"COMPOUND": "CN(C)CCCNC(CC#N)CCC#N (centres undefined)", "TGI": "> 10 µM"}
{"COMPOUND": "CCCCCCCCCCC(C(=O)O)C1(C(=O)O)CCC(=O)O1 (centres undefined)", "TGI": "> 100 µM"}
{"COMPOUND": "CCOC(CN=C=S)OCC", "TGI": "> 10 µM"}
{"COMPOUND": "CCSCCC(N)C(=O)O (centres undefined)", "TGI": "> 100 µM"}
{"COMPOUND": "CSc1ccc(C2OC(=O)c3ccccc32)c2ccccc12 (centres undefined)", "TGI": "> 100 µM"}
{"COMPOUND": "COC(=O)C1=CC2CCCC1(O)C(C(C)=O)C2 (centres undefined)", "TGI": "> 100 µM"}
